- System: NCI-H522 lung
- protocol-notes: NCI-60 one-dose screen, 48 h
- details: 10 µM unless noted
About 83,000 compounds went through this panel and 20% of them were active in at least one assay; those are over-represented in the sample as a whole. The source made the active and inactive calls. The calls were made as follows: active = growth percent below 10; inactive = the rest.
Response enum: active, inactive

[in] Please state the recorded outcome for this molecule: COc1cc2ncnc(Nc3ccc(S(=O)(=O)Nc4cc(C)on4)cc3)c2cc1OCCCN1CCOCC1
[out] inactive

[in] Please state the recorded outcome for this molecule: O=C(Nc1ccc(Cl)cc1)C1=NCCCCN1
[out] inactive

[in] Please state the recorded outcome for this molecule: COc1ccc2c(c1)c(-c1nc(-c3cn(C)c4ccncc34)cs1)cn2C
[out] inactive

[in] Please state the recorded outcome for this molecule: CCOc1cc(\C=N/N=C(N)/C(N)=N\N=C/c2ccc(O)c(OCC)c2)ccc1O
[out] inactive

[in] Please state the recorded outcome for this molecule: CN1CCN(Cn2nc(-c3cc(Cl)cc(Cl)c3Cl)oc2=S)CC1
[out] inactive

[in] Please state the recorded outcome for this molecule: CCN=c1sc2c(n1NC(=O)c1cc3ccc1CCc1ccc(cc1)CC3)C(=O)c1ccccc1C2=O
[out] active

[in] Please state the recorded outcome for this molecule: C=CCOC(=O)C1=C(C)N(CC)C(=O)N(CC)C1c1c(Cl)n(C)c2ccccc12 (stereo not drawn)
[out] inactive

[in] Please state the recorded outcome for this molecule: O=C(CSc1nc(-c2ccccc2)cn1-c1ccc(Cl)cc1)c1ccc([N+](=O)[O-])cc1
[out] inactive

====

- Tested on: SNB-75 CNS
- protocol-notes: NCI-60 one-dose screen, 48 h
- details: 10 µM unless noted
Compounds without any hit were thinned out: in the full panel of roughly 83,000, 20% have a hit. Activity calls are given as the source filed them. How the source made its calls: active means growth percent below 10; inactive means the rest.
Response enum: YES = active, NO = inactive

[in] Please state the recorded outcome for this molecule: Cc1cc2nc(C(Cl)Cl)nc(-c3ccccc3)n2n1
[out] YES

[in] Please state the recorded outcome for this molecule: Oc1ccc(C2OCCO2)c2cccnc12
[out] NO

[in] Please state the recorded outcome for this molecule: COCCNC(=O)Cc1cc(-c2ccc(Cl)cc2)n(-c2ccccc2)c1C
[out] NO

[in] Please state the recorded outcome for this molecule: C=CCNc1ccc2c3c(cccc13)C(=O)N(CC=C)C2=O
[out] NO

[in] Please state the recorded outcome for this molecule: COc1ccc(C2=NN(C=O)C(c3ccc(Oc4nc5c(c(=O)n(C)c(=O)n5C)n4C)c(OC)c3)C2)cc1 (stereo unspecified)
[out] NO

[in] Please state the recorded outcome for this molecule: CN(CCNc1ccc(C(=N)N)cc1)c1ccc(C(=N)N)cc1
[out] NO

====

- Tested on: NCI-H23 lung
- protocol-notes: NCI-60 one-dose screen, 48 h (100 = growth as untreated, 0 = no growth, -100 = all killed)
- details: 10 µM unless noted
About 83,000 compounds went through this panel and 20% of them were active in at least one assay; those are over-represented in the sample as a whole.
Assignment: determine reported growth for the given compounds.
Reply numerically in %, unit not repeated.

[in] Give its growth value. Item: Cc1cc2c(C(C)C)c(O)c(O)c(/C=N/O)c2c(O)c1-c1c(C)cc2c(C(C)C)c(O)c(O)c(/C=N/O)c2c1O
[out] 27.3

[in] Give its growth value. Item: CCOC(=O)C#Cc1c(CC(=O)OCC)nnn1[C@H]1O[C@@H](CO)[C@@H]2OC(C)(C)O[C@@H]21
[out] 95.3

[in] Give its growth value. Item: CC(Cc1cccc2ccccc12)C(N)=O (stereo unspecified)
[out] 99.9

[in] Give its growth value. Item: C/C(=N\NC(=O)c1ccc(C(C)(C)C)cc1)c1ccc(O)cc1O
[out] 23.7

[in] Give its growth value. Item: CC(C)c1nc(N(C)S(C)(=O)=O)nc(-c2ccc(F)cc2)c1/C=C/C(=O)C[C@@H](O)CC(=O)O
[out] 99.8

[in] Give its growth value. Item: C=C1C(=O)O[C@H]2[C@H]1CC/C(COC(=O)NCc1ccc(Cn3c(=O)sn(CCCC)c3=O)cc1)=C\CC[C@@]1(C)O[C@@H]21
[out] 80.8

[in] Give its growth value. Item: CCCC1Cc2cc(-n3nc(C)c4c3CC(C)(C)CC4=O)cc(NC3CCC(O)CC3)c2C(=O)N1 (stereo unspecified)
[out] 34.5

[in] Give its growth value. Item: Nc1nc(N)c2c(n1)NC(c1ccc3c(c1)OCO3)CC(c1cccc(Nc3ccncc3)c1)=N2 (stereo unspecified)
[out] 90

[in] Give its growth value. Item: O=C(/C=C/c1ccco1)c1ccc(Nc2ccnc3cc(Cl)ccc23)cc1
[out] 82.1

[in] Give its growth value. Item: CN(CCNc1ccc(C(=N)N)cc1)c1ccc(C(=N)N)cc1
[out] 81.3

[in] Give its growth value. Item: Cn1ccnc1C(=O)/C=C/c1ccc(C(=O)Nc2c(F)c(F)c(F)c(F)c2F)cc1
[out] -28.5

[in] Give its growth value. Item: COc1cccc(CNc2nnc(C)c(C)n2)c1O
[out] 96.5

[in] Give its growth value. Item: O=C(Nc1ccc(Cl)cc1)C1=NCCCCN1
[out] 92

[in] Give its growth value. Item: COc1cc(-c2c(-c3ccccc3)c[nH]c2C(=O)NCCCO)c(OC)c2c1OCO2
[out] 96.3

[in] Give its growth value. Item: C=CCn1c(SCC(=O)Nc2ccc(C(=O)/C=C/c3cc(OC)c(OC)c(OC)c3)cc2)nnc1-c1cc(-c2ccc(S(N)(=O)=O)cc2)nc2ccccc12
[out] 88.9

[in] Give its growth value. Item: COc1cccc2cc(N(C)c3ncnc4ccccc34)ccc12
[out] 15.5

====

- Tested on: KM12 colon
- protocol-notes: NCI-60 one-dose screen, 48 h (100 = growth as untreated, 0 = no growth, -100 = all killed)
- details: 10 µM unless noted
About 83,000 compounds went through this panel and 20% of them were active in at least one assay; those are over-represented in the sample as a whole.
Criterion: growth strictly under 90%. Met: class 1. Not met: class 0.

[in] growth strictly < 90% for this compound? O=c1c2cccc3c(N4CCOCC4)ccc(c32)c2nc3ccccc3n12
[out] class 1

[in] growth strictly < 90% for this compound? COc1cc(C2CC(c3cccc(Nc4ccncc4)c3)=Nc3c(N)ncnc3N2)cc(OC)c1OC (configuration not stated)
[out] class 1

[in] growth strictly < 90% for this compound? NCCCCCNc1noc(Cc2c[nH]c3cc(Br)ccc23)n1
[out] class 1

[in] growth strictly < 90% for this compound? O=C(Nc1ncc(Cc2ccccc2)s1)c1cc(-c2ccccc2)nc2ccccc12
[out] class 0

[in] growth strictly < 90% for this compound? Cc1[nH]c(C2CC(c3ccc(C(F)(F)F)c(F)c3)=NN2C)c(C)c1C(=O)NCC(F)(F)F (configuration not stated)
[out] class 0

[in] growth strictly < 90% for this compound? COc1cccc(-c2nn(-c3ccccc3)cc2-c2ccnc(-c3cccnc3)c2)c1
[out] class 0

[in] growth strictly < 90% for this compound? CN1CCN(c2ccc(Nc3ncc4[nH]c(=O)n(Cc5ccccc5N)c4n3)cc2)CC1
[out] class 0

[in] growth strictly < 90% for this compound? CC1(C)CC(=O)C2=C(C1)OC(C(=O)c1ccccc1)C2c1cccc(Oc2ccccc2)c1 (configuration not stated)
[out] class 1

[in] growth strictly < 90% for this compound? COC(=O)c1nc(-c2ccccc2)oc1S(=O)(=O)N1CCN(c2ccc(OC)cc2)CC1
[out] class 1

[in] growth strictly < 90% for this compound? C#Cc1cccc(Nc2nc(Cl)nc3cc(NC(=O)CCl)ccc23)c1
[out] class 1

[in] growth strictly < 90% for this compound? CC(=O)O[C@H]1C[C@@]2(C)[C@@H](C[C@@H](O)[C@H]3[C@@]4(C)CC[C@H](N5CCCC5)[C@@H](C)[C@@H]4CC[C@@]32C)/C1=C(\CCC=C(C)C)C(=O)O
[out] class 0

[in] growth strictly < 90% for this compound? CCOc1ccc(N2C(=O)CCSC2=S)cc1
[out] class 0

[in] growth strictly < 90% for this compound? COC(CCP(=O)(c1ccccc1)c1ccccc1)(C(=O)c1ccccc1)c1ccccc1 (configuration not stated)
[out] class 1

[in] growth strictly < 90% for this compound? C/C(=N\NC(=O)c1ccc(C(C)(C)C)cc1)c1ccc(O)cc1O
[out] class 1

[in] growth strictly < 90% for this compound? CCOC(=O)c1c(C)nc2c(c1N)C(=O)C(=O)N2CCc1ccc(OC)c(OC)c1
[out] class 1

[in] growth strictly < 90% for this compound? O=C(c1ccc(F)cc1)C1CCN(CCn2c(=O)[nH]c3ccccc3c2=O)CC1
[out] class 0

[in] growth strictly < 90% for this compound? CNC(=O)c1cc(Oc2cccc3nc(NC(=O)Nc4ccc(F)cc4F)ccc23)ccn1
[out] class 1

[in] growth strictly < 90% for this compound? C=C(c1ccc(OC)c(/C=C/C(=O)c2cc(OC)c(OC)c(OC)c2)c1)c1cc(OC)c(OC)c(OC)c1
[out] class 1

[in] growth strictly < 90% for this compound? CC(C)(C)[C@H](OCc1cn([C@H]2C[C@@H](O)[C@@H](CO)O2)c(=O)[nH]c1=O)c1ccc(C#Cc2ccccc2)cc1[N+](=O)[O-]
[out] class 1

[in] growth strictly < 90% for this compound? O=C(/C=C/c1ccco1)Nc1ncc(Cc2ccc(F)cc2)s1
[out] class 1

[in] growth strictly < 90% for this compound? O=c1c(/C=C/c2c(O)ccc3ccccc23)nnc2sc(-c3cccc([N+](=O)[O-])c3)nn12
[out] class 1

[in] growth strictly < 90% for this compound? CCN(CC)CCOc1ccc(/C(=C(\C)Cc2ccc(OC)cc2)c2ccc(O)cc2)cc1
[out] class 1

[in] growth strictly < 90% for this compound? O=C(/C=C/c1cccc([N+](=O)[O-])c1)c1ccc(Nc2nc(Nc3ccc(F)cc3)nc(Nc3ccc(Cl)cc3)n2)cc1
[out] class 0

[in] growth strictly < 90% for this compound? CCCCC/C=C/CCC(=O)N[C@H]1[C@H](Oc2c3cc4cc2Oc2ccc(cc2Cl)[C@@H](O[C@@H]2O[C@H](CO)[C@@H](O)[C@H](O)[C@H]2NC(C)=O)[C@@H]2NC(=O)[C@H](NC(=O)[C@@H]4NC(=O)[C@H]4NC(=O)[C@@H](Cc5ccc(c(Cl)c5)O3)NC(=O)[C@@H](N)c3ccc(O)c(c3)Oc3cc(O)cc4c3)c3ccc(O)c(c3)-c3c(O[C@H]4O[C@H](CO)[C@@H](O)[C@H](O)[C@@H]4O)cc(O)cc3[C@H](C(=O)O)NC2=O)O[C@H](CO)[C@H](O)[C@@H]1O
[out] class 0
